- Assay Summary: caspase activation in unprimed MEWO cells, dose response, counter-screen for Bcl2-A1 inhibitor project, cell-based, human MEWO, caspase luminescence, dry powder, set 3 (AID 504346)
- Experimental Parameters: MEWO unprimed cells, caspase-Glo luminescence, 3 h; at 35 µM (top of the series)
Reported Metric: caspase activation (%)
Quick reminder: number only, in %, skip the unit.

The recorded caspase activation for `COc1ccc(N2CCN(c3nc(NCCc4ccc(OC)c(OC)c4)nc(N4CCOCC4)n3)CC2)cc1` is -0.115

The recorded caspase activation for `CCn1c(=O)c([N+](=O)[O-])c(Sc2ccc(C)cc2)c2ccccc21` is 2.11

The recorded caspase activation for `Cn1c(=O)c([N+](=O)[O-])c(Cl)c2ccccc21` is 8.42

The recorded caspase activation for `Cc1ccc(Sc2c([N+](=O)[O-])c(=O)n(C)c3ccccc23)cc1` is 1.27

The recorded caspase activation for `C/C(=N\Nc1nc(N2CCCCC2)nc(N2CCCCC2)n1)c1ccc(F)cc1` is -0.441

The recorded caspase activation for `Cc1ccc(S(=O)(=O)c2c([N+](=O)[O-])c(=O)n(C)c3ccccc23)cc1` is 2.24

The recorded caspase activation for `O=C(COc1ccc(Cl)cc1Cl)NNc1nc(N2CCOCC2)nc(N2CCOCC2)n1` is -0.692

The recorded caspase activation for `CCn1c(=O)c(Sc2ccc(C)cc2)c(Sc2ccc(C)cc2)c2ccccc21` is 1.36

The recorded caspase activation for `CCn1c(=O)c([N+](=O)[O-])c(Cl)c2ccccc21` is 5.44

The recorded caspase activation for `COc1ccc(CCNc2nc(N3CCCC3)nc(N3CCCC3)n2)cc1OC` is 0.039

====

- Assay Summary: caspase activation in unprimed MEWO cells, dose response, counter-screen for Bcl2-A1 inhibitor project, cell-based, human MEWO, caspase luminescence, dry powder, set 3 (AID 504346)
- Experimental Parameters: MEWO unprimed cells, caspase-Glo luminescence, 3 h; at 35 µM (top of the series)
For each of the molecules below, state its caspase activation.
Quick reminder: number only, in %, skip the unit.

The recorded caspase activation for `COCCn1c(=O)c([N+](=O)[O-])c(Sc2ccc(C)cc2)c2ccccc21` is 1.99

The recorded caspase activation for `COc1ccc(CCNc2nc(N3CCOCC3)nc(N3CCOCC3)n2)cc1OC` is 0.746

The recorded caspase activation for `Cc1ccc(Sc2c(Sc3ccc(C)cc3)c3ccccc3n(Cc3ccccc3)c2=O)cc1` is 0.136

The recorded caspase activation for `COc1nc2ccccc2c(Sc2ccc(C)cc2)c1[N+](=O)[O-]` is 0.891

The recorded caspase activation for `COc1nc2ccccc2c(Cl)c1[N+](=O)[O-]` is 0.103

The recorded caspase activation for `O=c1[nH]c2ccccc2c(O)c1[N+](=O)[O-]` is -0.15

The recorded caspase activation for `Cn1c(=O)c([N+](=O)[O-])c(Sc2ccccn2)c2ccccc21` is 3.69

The recorded caspase activation for `Cn1c(=O)c(Sc2ccccn2)c(Sc2ccccn2)c2ccccc21` is -0.272

The recorded caspase activation for `Cc1ccc(Sc2c([N+](=O)[O-])c(=O)n(Cc3ccccc3)c3ccccc23)cc1` is 0.173

The recorded caspase activation for `COCCn1c(=O)c(Sc2ccc(C)cc2)c(Sc2ccc(C)cc2)c2ccccc21` is 1.05

The recorded caspase activation for `Cc1ccc(Sc2c(Sc3ccc(C)cc3)c3ccccc3n(C)c2=O)cc1` is 0.838

The recorded caspase activation for `COc1c([N+](=O)[O-])c(=O)n(C)c2ccccc12` is -0.158
